All values here come from the supplement of paper PMC12667976.

B1: library; numbered along this chain (parent)
chain: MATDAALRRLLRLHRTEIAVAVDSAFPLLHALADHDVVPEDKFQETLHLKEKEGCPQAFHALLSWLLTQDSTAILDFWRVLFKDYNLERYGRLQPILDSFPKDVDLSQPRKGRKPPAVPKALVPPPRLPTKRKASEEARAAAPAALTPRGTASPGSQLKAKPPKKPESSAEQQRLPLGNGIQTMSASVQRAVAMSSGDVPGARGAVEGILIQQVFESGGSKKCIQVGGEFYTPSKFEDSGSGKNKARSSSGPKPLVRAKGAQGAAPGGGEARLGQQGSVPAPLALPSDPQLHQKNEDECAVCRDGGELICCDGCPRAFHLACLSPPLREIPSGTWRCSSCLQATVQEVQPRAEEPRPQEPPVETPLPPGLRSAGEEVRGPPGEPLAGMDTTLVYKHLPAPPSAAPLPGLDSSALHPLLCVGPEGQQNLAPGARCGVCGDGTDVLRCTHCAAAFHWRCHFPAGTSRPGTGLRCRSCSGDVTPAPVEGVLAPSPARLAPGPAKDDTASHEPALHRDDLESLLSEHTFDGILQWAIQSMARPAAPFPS

variants of: B1; assay: AIRE transcriptional activation functional score (insulin promoter-GFP; nonsense median 0, synonymous median 1) (normalised score); higher = higher AIRE activity (more reporter activation); details: with insulin promoter-GFP reporter in HEK293
Test readout: AIRE transcriptional activation functional score
Could you keep your reply to the number by itself?

Please review the entries below; each comes with its answer.
Using the record for E375H , report its AIRE transcriptional activation functional score.
1.6

Same again, this time with A31P
-0.0989

Same again, this time with L409D
1.21

Same again, this time with H415C
0.616

Same again, this time with L128P
1.17

Same again, this time with G469S
1.15

In the following, a different variant is considered.
Using the record for D23A , report its AIRE transcriptional activation functional score.
-0.24
